measured.target: furin, P09958;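 also: purified furin at 1:10 enzyme:substrate in 50 mM HEPES pH 7.5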
Sequence (P09958 whole entry): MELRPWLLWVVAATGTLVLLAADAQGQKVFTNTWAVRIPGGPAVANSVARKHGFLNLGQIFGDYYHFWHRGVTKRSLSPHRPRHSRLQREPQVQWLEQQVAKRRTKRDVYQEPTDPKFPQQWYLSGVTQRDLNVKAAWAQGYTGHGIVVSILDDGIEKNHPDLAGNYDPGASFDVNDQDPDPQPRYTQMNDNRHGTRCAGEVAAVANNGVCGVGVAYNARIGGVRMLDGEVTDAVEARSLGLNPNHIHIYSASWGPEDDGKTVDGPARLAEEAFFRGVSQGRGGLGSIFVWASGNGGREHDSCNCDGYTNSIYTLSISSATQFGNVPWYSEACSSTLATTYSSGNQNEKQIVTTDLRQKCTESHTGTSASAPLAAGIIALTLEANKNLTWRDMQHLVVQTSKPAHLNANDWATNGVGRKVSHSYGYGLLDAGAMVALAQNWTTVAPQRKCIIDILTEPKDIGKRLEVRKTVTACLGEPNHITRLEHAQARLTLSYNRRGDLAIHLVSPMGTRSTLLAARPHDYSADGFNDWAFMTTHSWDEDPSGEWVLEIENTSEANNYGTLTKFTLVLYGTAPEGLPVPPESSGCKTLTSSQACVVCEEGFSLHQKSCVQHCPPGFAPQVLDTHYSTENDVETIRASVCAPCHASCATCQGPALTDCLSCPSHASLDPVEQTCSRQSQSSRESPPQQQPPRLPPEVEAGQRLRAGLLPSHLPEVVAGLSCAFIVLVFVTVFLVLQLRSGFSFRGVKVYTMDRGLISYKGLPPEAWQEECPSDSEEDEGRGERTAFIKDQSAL
assay.info: furin cleavage Z-score vs untreated control; higher = more cleavage, active = 3.5 or more, inactive = 1 or less, 8 variable residues between constant flanks
assay.setup: 15 min
Some of the results follow. The true hit rate is not given.
Answer with one of the outcomes given here: active, inactive

Would you please look over these solved cases?
CARGKRSLDGAGNASASA [FS-2018]	active
CASRCGSGPWAGNASASA [HC458]	inactive

## Input Kindly provide the recorded test outcome for the following sequence: CARGSRPSWGAGNASASA [HC211]
## Output inactive

## Input Same again, this time with CAVRSRHLRAAGNASASA [FS-632]
## Output active

## Input And for CALPSRQKKAAGNASASA [FS-1365] ?
## Output inactive

## Input Now try CAVPSRQSRAAGNASASA [FS-207] .
## Output active

## Input Same question, CATVPCSGSWAGNASASA [HC1850] this time
## Output inactive

Hey, just so you know, these numbers are from the supplement of paper PMC3545927.
